- Test system: green peach aphid (Myzus persicae)
- assay-method-text: Myzus test (MYZUPE spray treatment), Example 17
- Format: in vivo
- reported-conditions: application rate 100 g/ha, china cabbage leaf discs sprayed, after 6 days
Listed here are molecules together with their documented efficacy in %.
The response must be a number in % with no trailing unit.

Examples from the recorded data:
Prompt line: What measured efficacy in % goes with O=C(/C=C/c1ccc(C(=O)NC2CSC2)c(C(F)(F)F)c1)NC(c1cccc(C(F)(F)F)c1)C(F)(F)F (stereo not shown) ?
Response line: 100

Prompt line: What measured efficacy in % goes with O=C(/C=C/c1ccc(C(=O)NCc2ncccn2)c(Cl)c1)NC(c1cccc(C(F)(F)F)c1)C(F)(F)F (stereo not shown) ?
Response line: 100

Prompt line: What measured efficacy in % goes with O=C(/C=C/c1ccc(C(=O)NC2CSC2)c(Cl)c1)NC(c1cccc(C(F)(F)F)c1)C(F)(F)F (stereo not shown) ?
Response line: 80

Prompt line: What measured efficacy in % goes with O=C(/C=C/c1cc(C(F)(F)F)c(C(=O)NC2CC2)cn1)NC(c1cccc(C(F)(F)F)c1)C(F)(F)F (stereo not shown) ?
Response line: 100

Prompt line: What measured efficacy in % goes with CCC(=O)NCc1ccc(/C=C/C(=O)NC(c2ccc(F)c(Cl)c2)C(F)(F)F)cc1F (stereo not shown) ?
Response line: 100

New cases:
Prompt line: What measured efficacy in % goes with CC(C#N)NC(=O)c1ccc(/C=C/C(=O)NC(c2cccc(C(F)(F)F)c2)C(F)(F)F)cc1C(F)(F)F (stereo not shown) ?
Response line: 100

Prompt line: What measured efficacy in % goes with O=C(/C=C/c1ccc(C(=O)Nc2ccc(Cl)cn2)c(Cl)c1)NC(c1cccc(C(F)(F)F)c1)C(F)(F)F (stereo not shown) ?
Response line: 80

====

Listed here are compounds together with their documented efficacy in %.
- Test system: green peach aphid (Myzus persicae)
- assay-method-text: Myzus test (MYZUPE spray treatment), Example 17
- Type: in vivo
- reported-conditions: application rate 100 g/ha, china cabbage leaf discs sprayed, after 6 days
The response must be a number in % with no trailing unit.

Prompt line: What efficacy in % appears in the records for this compound with green peach aphid (Myzus persicae)? COC(=O)C(C)NC(=O)c1ccc(/C=C/C(=O)NC(c2cccc(C(F)(F)F)c2)C(F)(F)F)cc1C(F)(F)F (stereo not drawn) [Ia-132]
Response line: 80

Could you now look at the following compound, please?
Prompt line: What efficacy in % appears in the records for this compound with green peach aphid (Myzus persicae)? O=C(/C=C/c1ccc(C(=O)NCC2CC2)c(Br)c1)NC(c1cccc(C(F)(F)F)c1)C(F)(F)F (stereo not drawn) [Ia-180]
Response line: 90

====

- Test system: green peach aphid (Myzus persicae)
- assay-method-text: Myzus test (MYZUPE spray treatment), Example 17
- Type: in vivo
- reported-conditions: application rate 100 g/ha, china cabbage leaf discs sprayed, after 6 days
readout-kind: efficacy in % (%)
The response must be a number in % with no trailing unit.

Prompt line: What measured efficacy in % goes with CC(NC(=O)c1ccc(/C=C/C(=O)NC(c2cccc(C(F)(F)F)c2)C(F)(F)F)cc1Cl)C(F)(F)F (stereo not drawn) [Ia-158] ?
Response line: 80

Prompt line: What measured efficacy in % goes with O=C(/C=C/c1ccc(C(=O)NC2CCC2)c(Br)c1)NC(c1cccc(C(F)(F)F)c1)C(F)(F)F (stereo not drawn) [Ia-179] ?
Response line: 90

Prompt line: What measured efficacy in % goes with Cc1cc(/C=C/C(=O)NC(c2cccc(C(F)(F)F)c2)C(F)(F)F)ccc1C(=O)NCCC1CC1 (stereo not drawn) [Ia-115] ?
Response line: 100

Prompt line: What measured efficacy in % goes with O=C(/C=C/c1ccc(C(=O)NC2CCC2)c(Cl)c1)NC(c1cccc(C(F)(F)F)c1)C(F)(F)F (stereo not drawn) [Ia-162] ?
Response line: 100

Prompt line: What measured efficacy in % goes with C/C(=C\C(=O)NC(c1cccc(C(F)(F)F)c1)C(F)(F)F)c1ccc(C(=O)NC(C)C)c(C(F)(F)F)c1 (stereo not drawn) [Id-4] ?
Response line: 90

Prompt line: What measured efficacy in % goes with CC(C)NC(=O)c1ccc(/C=C/C(=O)NC(c2cccc(C(F)(F)F)c2)C(F)(F)F)cc1Cl (stereo not drawn) [Ia-150] ?
Response line: 100

Could you now look at the following compound, please?
Prompt line: What measured efficacy in % goes with O=C(/C=C/c1ccc(C(=O)NC(CF)CF)c(C(F)(F)F)c1)NC(c1cccc(C(F)(F)F)c1)C(F)(F)F (stereo not drawn) [Ia-143] ?
Response line: 100

====

Listed here are compounds together with their documented chromatographic logP.
- assay-method-text: logP by HPLC on reverse-phase column (EEC Directive 79/831 Annex V.A8)
- Format: physicochemical
- reported-conditions: reverse-phase C18 HPLC column, pH 2.7, HPLC, C18 reverse phase, 43° C., acidic range pH 2.7, calibration with alkan-2-ones
Give your answer as a number; write no unit.

Examples from the recorded data:
Prompt line: What measured chromatographic logP goes with O=C(/C=C/c1ccc(C(=O)NC2C[S+]([O-])C2)c(Cl)c1)NC(c1cccc(C(F)(F)F)c1)C(F)(F)F (stereo not shown) ?
Response line: 2.63

Prompt line: What measured chromatographic logP goes with CC(F)(F)C(=O)c1cccc(C(F)(F)F)c1 ?
Response line: 3.61

Prompt line: What measured chromatographic logP goes with Cc1cc(/C=C/C(=O)O)ccc1C(=O)NC1CC1 ?
Response line: 1.14

Prompt line: What measured chromatographic logP goes with N/C(=N\O)c1ccc(/C=C/C(=O)NC(c2cccc(C(F)(F)F)c2)C(F)(F)F)cc1C(F)(F)F (stereo not shown) ?
Response line: 2.55

Prompt line: What measured chromatographic logP goes with NC(c1cc(F)cc(C(F)(F)F)c1)C(F)(F)F (stereo not shown) ?
Response line: 2.51

Prompt line: What measured chromatographic logP goes with O=C(C#Cc1ccc(C(=O)NC2CC2)c(Cl)c1)NC(c1cccc(C(F)(F)F)c1)C(F)(F)F (stereo not shown) ?
Response line: 3.34

Prompt line: What measured chromatographic logP goes with O=C(NC1CC1)c1ccc(Br)cc1C(F)(F)F ?
Response line: 2.13

Prompt line: What measured chromatographic logP goes with NCc1ccc2oc(C(=O)NC(c3cccc(C(F)(F)F)c3)C(F)(F)F)cc2c1 (stereo not shown) ?
Response line: 2.02

New cases:
Prompt line: What measured chromatographic logP goes with CCOC(=O)c1cc2ccc(C(=O)OC(C)(C)C)cc2o1 ?
Response line: 4.32

Prompt line: What measured chromatographic logP goes with CC(F)(F)C(NC(=O)/C=C/c1ccc(C(=O)NC2CC2)c(Cl)c1)c1cccc(C(F)(F)F)c1 (stereo not shown) ?
Response line: 3.04

====

- assay-method-text: logP by HPLC on reverse-phase column (EEC Directive 79/831 Annex V.A8)
- Assay type: physicochemical
- reported-conditions: reverse-phase C18 HPLC column; HPLC, C18 reverse phase, 43° C., acidic range pH 2.7, calibration with alkan-2-ones
readout-kind: chromatographic logP
Give your answer as a number; write no unit.

Prompt line: What measured chromatographic logP goes with CC(C)(C)OC(=O)NCc1ccc(/C=C/C(=O)NC(c2cccc(C(F)(F)F)c2)C(F)(F)F)cc1C(F)(F)F (stereo not shown) ?
Response line: 4.4

====

- Test system: armyworm (Spodoptera frugiperda)
- assay-method-text: Spodoptera frugiperda test (SPODFR spray treatment), Example 15
- Format: in vivo
- reported-conditions: application rate 100 g/ha, maize leaf discs sprayed, after 7 days
Listed here are compounds together with their documented efficacy in %.
The response must be a number in % with no trailing unit.

Examples from the recorded data:
Prompt line: What efficacy in % appears in the records for this compound with armyworm (Spodoptera frugiperda)? O=C(/C=C/c1ccc(CNS(=O)(=O)C2CC2)c(C(F)(F)F)c1)NC(c1cccc(C(F)(F)F)c1)C(F)(F)F (centres unmarked) [Ia-271]
Response line: 100

Prompt line: What efficacy in % appears in the records for this compound with armyworm (Spodoptera frugiperda)? Cc1ccnc(NC(=O)c2ccc(/C=C/C(=O)NC(c3cccc(C(F)(F)F)c3)C(F)(F)F)cc2C(F)(F)F)c1 (centres unmarked) [Ia-259]
Response line: 100

Prompt line: What efficacy in % appears in the records for this compound with armyworm (Spodoptera frugiperda)? CC(=O)NCc1ccc(/C=C/C(=O)NC(c2cccc(C(F)(F)F)c2)C(F)(F)F)cc1Cl (centres unmarked) [Ia-248]
Response line: 100

New cases:
Prompt line: What efficacy in % appears in the records for this compound with armyworm (Spodoptera frugiperda)? CCC(=O)NC(C)c1ccc(/C=C/C(=O)NC(c2ccc(F)c(C(F)(F)F)c2)C(F)(F)F)cc1F (centres unmarked) [Ia-275]
Response line: 100

Prompt line: What efficacy in % appears in the records for this compound with armyworm (Spodoptera frugiperda)? O=C(/C=C/c1ccc(C(=O)Nc2ccc(F)cn2)c(Br)c1)NC(c1cccc(C(F)(F)F)c1)C(F)(F)F (racemic) [Ia-212]
Response line: 100

Prompt line: What efficacy in % appears in the records for this compound with armyworm (Spodoptera frugiperda)? CN(C(=O)c1ccc(/C=C/C(=O)NC(c2cccc(C(F)(F)F)c2)C(F)(F)F)cc1C(F)(F)F)c1ccccn1 (centres unmarked) [Ia-239]
Response line: 100

Prompt line: What efficacy in % appears in the records for this compound with armyworm (Spodoptera frugiperda)? CN(C(=O)c1ccc(/C=C/C(=O)NC(c2ccc(F)c(C(F)(F)F)c2)C(F)(F)F)cc1C(F)(F)F)c1ccccn1 (centres unmarked) [Ia-281]
Response line: 100

Prompt line: What efficacy in % appears in the records for this compound with armyworm (Spodoptera frugiperda)? O=C(/C=C/c1ccc2c(c1)CCC2NC(=O)CC1CC1)NC(c1cccc(C(F)(F)F)c1)C(F)(F)F (centres unmarked) [Ie-2]
Response line: 100

Prompt line: What efficacy in % appears in the records for this compound with armyworm (Spodoptera frugiperda)? CC(C#N)NC(=O)c1ccc(/C=C/C(=O)NC(c2cccc(C(F)(F)F)c2)C(F)(F)F)cc1C(F)(F)F (centres unmarked) [Ia-141]
Response line: 100

Prompt line: What efficacy in % appears in the records for this compound with armyworm (Spodoptera frugiperda)? C#CC(C)(C)NC(=O)c1ccc(/C=C/C(=O)NC(c2cccc(C(F)(F)F)c2)C(F)(F)F)cc1C(F)(F)F (centres unmarked) [Ia-146]
Response line: 100

Prompt line: What efficacy in % appears in the records for this compound with armyworm (Spodoptera frugiperda)? N#CCNC(=O)c1ccc(/C=C/C(=O)NC(c2cccc(C(F)(F)F)c2)C(F)(F)F)cc1C(F)(F)F (centres unmarked) [Ia-129]
Response line: 100
